experiment: Stability of the analytes in rat plasma QC samples; type: in vitro ADME; conditions: room temperature for 8 h, high QC spiked concentration
Entries and their Short-tern stability: Measured concentration
Note: unit ng/mL is implicit; provide only the numeric part.

Past entries and their recorded results:
compound: C[C@@H]1O[C@@H](OC[C@H]2O[C@@H](Oc3c(-c4ccc(O)c(O)c4)oc4cc(O)cc(O)c4c3=O)[C@H](O)[C@@H](O)[C@@H]2O)[C@H](O)[C@H](O)[C@H]1O [Rutin]
unitString: ng/mL
testValue: 426.82

compound: O=c1cc(-c2ccc(O)c(O)c2)oc2cc(O)cc(O)c12 [Luteolin, luteolin]
unitString: ng/mL
testValue: 260.55

compound: COc1ccc(-c2cc(=O)c3c(O)cc(O)cc3o2)cc1 [Acacetin, acacetin]
unitString: ng/mL
testValue: 107.02

compound: O=c1cc(-c2ccc(O)cc2)oc2cc(O)cc(O)c12 [Apigenin, apigenin]
unitString: ng/mL
testValue: 490.89

compound: O=c1c(O)c(-c2ccc(O)c(O)c2)oc2cc(O)cc(O)c12 [Quercetin, quercetin]
unitString: ng/mL
testValue: 66.98

Now turn to the next compound.
Task: I am curious: what Short-tern stability: Measured concentration value has been reported for C[C@@H]1O[C@@H](O[C@@H]2[C@@H](O)[C@H](OCCc3ccc(O)c(O)c3)O[C@H](CO)[C@H]2OC(=O)/C=C/c2ccc(O)c(O)c2)[C@H](O)[C@H](O)[C@H]1O [Acteoside, acteoside] ?
Result: 2150.14
